Reference for the values: patent US20090280138A1

- tested-system: T1, MHC class I allele A*0301 (bound via biotin to streptavidin-coated plate)
- T1 construct: iTopia MHC class I monomer on the plate; placeholder peptide and b2M removed, then reconstituted with test peptide and fresh b2M; also called A3; HLA A3
- run-description: iTopia peptide binding assay
result-type: % of positive control peptide binding
Note: a bare number is incomplete; add the unit.

Known % of positive control peptide binding results, listed for orientation:
binder	reading
TEVPTDLPA (also called Peptide No 42) [5T4 9 mer peptide 42 TEVPTDLPA]	0%
SGSNASVSA (also called Peptide No 82) [5T4 9 mer peptide 82 SGSNASVSA]	3%
RDVLAQLPS [5T4 9 mer peptide 114 RDVLAQLPS]	3%

Form field % of positive control peptide binding, entry RTVKCVNRN (also called Peptide No 37) [5T4 9 mer peptide 37 RTVKCVNRN] : 12%

Noted for AGAFEHLPS (also called Peptide No 68) [5T4 9 mer peptide 68 AGAFEHLPS] : its % of positive control peptide binding reads 3%

For this binder ( MPGGCSRGP (also called Peptide No 1) [5T4 9 mer peptide 1 MPGGCSRGP] ), measured % of positive control peptide binding is 0%

Per the record, PPLAELAAL (also called Peptide No 58) [5T4 9 mer peptide 58 PPLAELAAL] has % of positive control peptide binding of 4%
